- Test system: L929
- assay.notes: Cytotoxicity against mouse L929 cells assessed as inhibition of cell growth after 5 days by MTT assay
- Assay type: cell-based
- condition: L929, 120 h
measurement.kind: IC50 (nM)
Number in nM, nothing else.

Param readout = IC50; param system = L929; param query = "C/C(=C\c1csc(C)n1)[C@@H]1C[C@@H]2O[C@]2(C)CCC[C@H](C)[C@H](O)[C@@H](C)C(=O)C(C)(C)[C@@H](O)CC(=O)O1" ; response: value
1.4

###

- Test system: Mucor plumbeus
- assay.notes: Antimicrobial activity against Mucor plumbeus MUCL 49355 by serial dilution method
- Assay type: functional
Activity calls are given as the source filed them. No cut-off for these calls is given here.
measurement.kind: MIC

Use the examples below as a reference point.
{"columns": ["entry.smiles", "result"],
 "data": [
  ["C/C(=C\\CC/C(C)=C/CO[C@@H](C(=O)O)[C@H](CC(=O)O)C(=O)O)CC/C=C(\\C)CC[C@H](O)C(C)(C)O", "300 µg/mL"],
  ["CC(C)=CCC[C@@](C)(O)[C@@H](O)CC/C(C)=C/CC/C(C)=C/CO[C@@H](C(=O)O)[C@H](CC(=O)O)C(=O)O", "inactive"],
  ["C[C@@H]1CO[C@H]2[C@@H]1CC[C@H](C)[C@]21C=C(CO)CC1", "75 µg/mL"],
  ["C/C(=C\\CC/C(C)=C/CO[C@@H](C(=O)O)[C@H](CC(=O)O)C(=O)O)CC/C=C(\\C)CC/C=C(\\C)C(=O)O", "inactive"],
  ["CC(C)=CCC/C(C)=C/CC/C(C)=C/CC/C(C)=C/CO[C@@H](C(=O)O)[C@H](CC(=O)O)C(=O)O", "75 µg/mL"]
]}

Consider the compound shown here: "C/C(=C\CC/C(C)=C/CC/C(C)=C/CC/C(C)=C/CO[C@@H](C(=O)O)[C@H](CC(=O)O)C(=O)O)CO" What is its recorded MIC?
75 µg/mL

"CC(C)=CCC/C(C)=C/CC/C(C)=C/CO[C@@H](C(=O)O)[C@H](CC(=O)O)C(=O)O" , same question.
75 µg/mL

"COC(=O)C[C@H](C(=O)O)[C@@H](OC/C=C(\C)CC/C=C(\C)CC/C=C(\C)CCC=C(C)C)C(=O)O" , same question.
150 µg/mL
